Target: MER kinase (Homo sapiens (Human), UniProt Q12866)
Sequence (Q12866 21-999): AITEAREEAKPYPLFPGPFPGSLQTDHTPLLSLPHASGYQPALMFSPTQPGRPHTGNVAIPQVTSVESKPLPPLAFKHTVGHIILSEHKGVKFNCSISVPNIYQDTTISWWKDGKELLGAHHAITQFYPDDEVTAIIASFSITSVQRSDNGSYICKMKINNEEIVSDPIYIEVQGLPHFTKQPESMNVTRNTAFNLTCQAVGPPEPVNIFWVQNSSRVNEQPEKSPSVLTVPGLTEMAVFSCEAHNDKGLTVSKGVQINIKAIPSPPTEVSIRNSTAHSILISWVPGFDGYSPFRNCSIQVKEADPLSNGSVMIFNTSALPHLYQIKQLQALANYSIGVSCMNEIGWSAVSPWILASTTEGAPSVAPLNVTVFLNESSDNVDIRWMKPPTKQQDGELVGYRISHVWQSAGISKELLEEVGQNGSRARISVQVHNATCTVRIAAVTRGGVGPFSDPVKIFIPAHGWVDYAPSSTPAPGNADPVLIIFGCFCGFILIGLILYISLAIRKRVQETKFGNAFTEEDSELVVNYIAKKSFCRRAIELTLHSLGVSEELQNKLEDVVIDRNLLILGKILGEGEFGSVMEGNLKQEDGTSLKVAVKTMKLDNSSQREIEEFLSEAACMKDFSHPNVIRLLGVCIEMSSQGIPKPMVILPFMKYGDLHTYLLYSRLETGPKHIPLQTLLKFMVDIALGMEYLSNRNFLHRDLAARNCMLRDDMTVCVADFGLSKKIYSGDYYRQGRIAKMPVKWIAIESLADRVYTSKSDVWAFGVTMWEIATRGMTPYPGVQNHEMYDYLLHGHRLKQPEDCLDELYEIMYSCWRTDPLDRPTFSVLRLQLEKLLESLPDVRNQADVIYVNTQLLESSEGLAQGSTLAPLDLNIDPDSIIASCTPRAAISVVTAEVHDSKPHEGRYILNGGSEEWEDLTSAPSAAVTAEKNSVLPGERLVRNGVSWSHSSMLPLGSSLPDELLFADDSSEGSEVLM
pIC50: −log10 of the molar value.
ENDPOINT NAME: pIC50

Ask: May I ask what pIC50 has been recorded for CCOc1cc2nccc(Oc3ccc(NC(=O)c4c(OC)ccn(-c5ccc(F)cc5)c4=O)c(Cl)c3)c2c2c1OCCO2 ?
Reply: ≥ 7.30

Ask: May I ask what pIC50 has been recorded for CC(C)n1cc(C(=O)Nc2ccc(Oc3ccnc4cc(OCCCN5CCS(=O)(=O)CC5)c5c(c34)OCCO5)c(F)c2)c(=O)n(-c2ccc(F)cc2)c1=O ?
Reply: ≥ 7.30

Ask: May I ask what pIC50 has been recorded for CC(C)n1cc(C(=O)Nc2ccc(Oc3ccnc4cc(OCCCN5CCCCC5)c5c(c34)OCCO5)c(F)c2)c(=O)n(-c2ccc(F)cc2)c1=O ?
Reply: ≥ 7.30

Ask: May I ask what pIC50 has been recorded for CCOc1ccn(C2CCCCC2)c(=O)c1C(=O)Nc1ccc(Oc2ccnc3cc(OC)c4c(c23)OCCO4)c(F)c1 ?
Reply: 5.30 to 6.30

Ask: May I ask what pIC50 has been recorded for N#CCCCOc1cc2nccc(Oc3ccc(NC(=O)c4cccn(-c5ccc(F)cc5)c4=O)c(Cl)c3)c2c2c1OCCO2 ?
Reply: 6.30 to 7.30
